# Test system: HepG2 cells
Response field label: string, one of T (CC50 strictly below 100 nM) or F.

// query CC50 strictly < 100 nM for this compound? CCCNCC(O)COc1ccccc1C(=O)CCc1ccccc1 (centres unmarked)
// result F

***
// query CC50 strictly < 100 nM for this compound? CCCCCN=C(N)Nc1nc(-c2cnc(C)[nH]2)cs1
// result F

// query CC50 strictly < 100 nM for this compound? O=C1c2ccccc2C(=O)c2sc(-c3ccco3)nc21
// result F

// query CC50 strictly < 100 nM for this compound? CN(C)CCOc1ccc2[nH]c(C(=O)NCC#Cc3ccc(C(=O)NO)cc3)cc2c1
// result F

Cited source: paper PMC11145868
